- Tested on: M14 melanoma
- Test: NCI tumour cell line growth inhibition, 48 h
Property label: TGI (µM)
One number for each entry, in µM.

C#CCN(CCCOc1ccc(Cl)cc1Cl)CCCSC(=O)CCCCCN1/C(=C\C=C2/CCCC(/C=C/C3=[N+](CCCCCC(=O)[O-])c4ccccc4C3(C)C)=C2Cl)C(C)(C)c2ccccc21	3.36

Turning now to a further compound:
// fetch M14 melanoma TGI for `COc1cc(/C=C/C(=O)/C=C/c2ccc(-n3ccnc3)cc2)ccc1O`
5.98

* * *

- Test system: OVCAR-5 ovarian
- Test: NCI tumour cell line growth inhibition, 48 h; in the data active = GI50 below about 0.43 µM; inactive = the rest
// one of active, inactive, no free text

CCCCCCC1CCCCN1C(c1ccccc1)C(O)c1ccccc1 (stereo unspecified)	inactive

Now turn to the next molecule.
So what was the verdict on Nc1c([N+](=O)[O-])ncn1C1OC(CO)C(O)C1O (stereo unspecified) in this test?
inactive
